These data points were gathered from patent US8569301B2.

- System: AMARE
- Measurement Description: Example B1 herbicidal action post-emergence, AMARE
- Format: in vivo
- Applied Conditions: Rate 1000 g/ha; sprayed after 8 days cultivation; evaluated after 13 days; scores from 10 to 0 (10=total damage to plant; 0=no damage to plant)
Measurement Type: assessed score, application post-emergence, AMARE

>  <Compound>
CC(C)C(=O)OC1=C(c2c(F)ccc(Br)c2Cl)S(=O)(=O)Cc2nccnc21

>  <Number>
10

$$$$
>  <Compound>
CC#CCC1c2nccnc2C(O)=C(c2c(F)ccc(Br)c2Cl)S1(=O)=O (centres unmarked)

>  <Number>
6

$$$$
>  <Compound>
CCC1c2nccnc2C(O)=C(c2cc(Cl)ccc2C(F)(F)F)S1(=O)=O (racemic)

>  <Number>
8

$$$$
>  <Compound>
O=S1(=O)C(c2c(F)ccc(Br)c2Cl)=C(O)c2nccnc2C12CCC2

>  <Number>
4

$$$$
>  <Compound>
O=S1(=O)Cc2nccnc2C(O)=C1c1cc(F)ccc1Cl

>  <Number>
7

$$$$
>  <Compound>
CCc1cc(-c2ccc(Cl)cc2Cl)ccc1C1=C(O)c2nccnc2CS1(=O)=O

>  <Number>
10

$$$$
>  <Compound>
CC1c2nccnc2C(O)=C(c2c(Cl)cccc2C(F)(F)F)S1(=O)=O (racemic)

>  <Number>
9

$$$$
>  <Compound>
Cc1cc(C)c(C2=C(O)c3nccnc3CS2(=O)=O)c(C)c1

>  <Number>
1

$$$$
